Task for the reader: assign each of the following compounds its reported Fold selectivity for SST5 vs SST2.
subject-of-test: human somatostatin receptor subtype 5 (Homo sapiens)
Sequence (P35346 whole entry): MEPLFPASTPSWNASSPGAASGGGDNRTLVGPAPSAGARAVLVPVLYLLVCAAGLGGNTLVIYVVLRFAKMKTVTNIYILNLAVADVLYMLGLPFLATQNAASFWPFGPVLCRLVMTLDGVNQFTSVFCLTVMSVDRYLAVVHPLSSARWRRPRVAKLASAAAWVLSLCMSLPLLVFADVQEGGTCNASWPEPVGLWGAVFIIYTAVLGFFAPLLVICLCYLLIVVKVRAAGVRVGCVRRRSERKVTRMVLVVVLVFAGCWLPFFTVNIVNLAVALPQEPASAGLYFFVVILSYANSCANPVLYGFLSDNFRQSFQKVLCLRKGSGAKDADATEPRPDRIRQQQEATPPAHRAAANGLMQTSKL
assay-name: cAMP assay for SST5R (inhibition of cAMP via human SST5 receptor)
protocol-conditions: SST5 over SST2, given as number (comparison compounds)
// return just the number, without any unit appended

Data request: Give Fold selectivity for SST5 vs SST2 for the following compound: `Cc1cc(F)cc(-c2cncc(-c3nc4cccc(Cl)c4[nH]3)c2N2CCC(N)CC2)c1`
Data returned: 0.0008

Data request: Give Fold selectivity for SST5 vs SST2 for the following compound: `COc1cc(Cl)cc2[nH]c(-c3cncc(-c4cc(C)cc(F)c4)c3N3CCC(N)CC3)nc12`
Data returned: 0.00004

Data request: Give Fold selectivity for SST5 vs SST2 for the following compound: `Cc1cccc(-c2cncc(-c3nc4c(C)cccc4[nH]3)c2N2CCC(N)CC2)c1`
Data returned: 0.002

Data request: Give Fold selectivity for SST5 vs SST2 for the following compound: `Cc1ccnc2nc(-c3cncc(-c4cccc(Cl)c4)c3N3CCC(N)CC3)[nH]c12`
Data returned: 0.009

---

subject-of-test: human somatostatin receptor subtype 5 (Homo sapiens)
assay-name: cAMP assay for SST5R (inhibition of cAMP via human SST5 receptor)
Task for the reader: assign each of the following molecules its reported EC50.

Data request: Give EC50 for the following molecule: `Cc1c(Cl)cccc1-c1cncc(-c2nc3cc(F)cc(F)c3[nH]2)c1N1CC(CN)C1`
Data returned: 10 to 100 nM

Data request: Give EC50 for the following molecule: `Cc1cc(F)cc(-c2cncc(-c3nc4cccc(Cl)c4[nH]3)c2N2CC(CN)C2)c1`
Data returned: < 10 nM

Data request: Give EC50 for the following molecule: `Cc1cc(F)cc(-c2cncc(-c3nc4cc(Cl)cc(F)c4[nH]3)c2N2CC(CN)C2)c1`
Data returned: 10 to 100 nM

Data request: Give EC50 for the following molecule: CC(N)C1(C)CN(c2c(-c3cccc(C(F)(F)F)c3)cncc2-c2nc3cc(F)cc(F)c3[nH]2)C1 (stereo not drawn)
Data returned: < 10 nM

Data request: Give EC50 for the following molecule: CC1(N)CCN(c2c(-c3ccnc(C#N)c3)cncc2-c2nc3cccc(C#N)c3[nH]2)C1 (stereo not drawn)
Data returned: < 10 nM

Data request: Give EC50 for the following molecule: `N#Cc1ccc(-c2cncc(-c3nc4c(F)cccc4[nH]3)c2N2CC[C@H](N)C2)cc1F`
Data returned: 10 to 100 nM

Data request: Give EC50 for the following molecule: `Cc1ccccc1-c1cncc(-c2nc3cc(F)cc(F)c3[nH]2)c1N1CC(CN)C1`
Data returned: 10 to 100 nM

Data request: Give EC50 for the following molecule: `Cc1ccc(F)cc1-c1cncc(-c2nc3cc(F)cc(F)c3[nH]2)c1N1CC(CN)C1`
Data returned: 10 to 100 nM

Data request: Give EC50 for the following molecule: `Cc1ccc(F)c2[nH]c(-c3cncc(-c4ccnc(C#N)c4)c3N3CC[C@H](N)C3)nc12`
Data returned: < 10 nM

Data request: Give EC50 for the following molecule: `C[C@]1(N)CCN(c2c(-c3ccc(F)c(C#N)c3)cncc2-c2nc3cccc(C#N)c3[nH]2)C1`
Data returned: < 10 nM

Data request: Give EC50 for the following molecule: `NCC1CN(c2c(-c3cc(F)cc(F)c3)cncc2-c2nc3cc(F)cc(F)c3[nH]2)C1`
Data returned: < 10 nM

Data request: Give EC50 for the following molecule: Cc1cccc2nc(-c3cncc(-c4ccnc(C#N)c4)c3N3CCC(C)(N)C3)[nH]c12 (stereo not drawn)
Data returned: < 10 nM

Data request: Give EC50 for the following molecule: `N#CCn1c(-c2cncc(-c3cc(F)cc(C#N)c3)c2N2CC[C@H](N)C2)nc2ccccc21`
Data returned: 100 to 1000 nM

Data request: Give EC50 for the following molecule: `COc1ccc(-c2cncc(-c3nc4cccc(F)c4[nH]3)c2N2CC[C@H](N)C2)cc1C(N)=O`
Data returned: > 1000 nM

Data request: Give EC50 for the following molecule: `N#Cc1cc(-c2cncc(-c3nc4cccc(Cl)c4[nH]3)c2N2CC[C@H](N)C2)ccn1`
Data returned: < 10 nM

Data request: Give EC50 for the following molecule: `N#Cc1cc(-c2cncc(-c3nc4cccc(F)c4[nH]3)c2N2CC[C@H](N)C2)ccc1O`
Data returned: 100 to 1000 nM

Data request: Give EC50 for the following molecule: `Cc1ccc(-c2cncc(-c3nc4cc(F)cc(F)c4[nH]3)c2N2CC(CN)C2)cc1F`
Data returned: 10 to 100 nM

Data request: Give EC50 for the following molecule: `N#Cc1cc(-c2cncc(-c3nc4c(F)ccc(F)c4[nH]3)c2N2CC[C@H](N)C2)ccc1C(F)(F)F`
Data returned: 10 to 100 nM

Data request: Give EC50 for the following molecule: CC1(N)CCN(c2c(-c3ccnc(C#N)c3)cncc2-c2nc3cccc(Cl)c3[nH]2)C1 (stereo not drawn)
Data returned: < 10 nM

Data request: Give EC50 for the following molecule: `Cc1cccc2nc(-c3cncc(-c4ccnc(C#N)c4)c3N3CC[C@H](N)C3)[nH]c12`
Data returned: < 10 nM

Data request: Give EC50 for the following molecule: `N#Cc1cccc(-c2cncc(-c3nc4c(CO)cccc4[nH]3)c2N2CC[C@H](N)C2)c1`
Data returned: 100 to 1000 nM

Data request: Give EC50 for the following molecule: CC1(N)CCN(c2c(-c3cccc(S(C)(=O)=O)c3)cncc2-c2nc3cccc(F)c3[nH]2)C1 (stereo not drawn)
Data returned: < 10 nM

Data request: Give EC50 for the following molecule: Cc1nccc2nc(-c3cncc(-c4ccc(F)c(C#N)c4)c3N3CCC(C)(N)C3)[nH]c12 (stereo not drawn)
Data returned: < 10 nM

Data request: Give EC50 for the following molecule: `COc1cc(-c2cncc(-c3nc4nccc(C)c4[nH]3)c2N2CC[C@](C)(N)C2)ccc1F`
Data returned: < 10 nM

Data request: Give EC50 for the following molecule: CC1(N)CCN(c2c(-c3ccc4cc[nH]c4c3)cncc2-c2nc3cccc(F)c3[nH]2)C1 (stereo not drawn)
Data returned: < 10 nM

Data request: Give EC50 for the following molecule: CC(N)C1CN(c2c(-c3nc4cc(F)cc(F)c4[nH]3)cncc2-c2cccc(F)c2O)C1 (stereo not drawn)
Data returned: 10 to 100 nM

Data request: Give EC50 for the following molecule: `Cc1cccc2c1nc(-c1cncc(-c3cc(F)cc(C#N)c3)c1N1CC[C@H](N)C1)n2C`
Data returned: < 10 nM

Data request: Give EC50 for the following molecule: `N#Cc1cccc(-c2cncc(-c3nc4c(F)cc(F)cc4[nH]3)c2N2CC(CN)C2)c1`
Data returned: < 10 nM

Data request: Give EC50 for the following molecule: `Cc1cc(F)cc(-c2cncc(-c3nc4cc(C)ccc4[nH]3)c2N2CC(CN)C2)c1`
Data returned: < 10 nM

Data request: Give EC50 for the following molecule: CC1(N)CCN(c2c(-c3ccnc(C#N)c3)cncc2-c2nc3cccc(C(F)(F)F)c3[nH]2)C1 (stereo not drawn)
Data returned: < 10 nM
